TARGET OR SYSTEM: CDK2 (Homo sapiens)
Construct: High-Throughput Measurement of Cellular Endogenous CDK2; endogenous in cells
METHOD NOTES: Inhibition of CDK2: phospho-Rb (S807/811) HTRF measurement in OVCAR3 cells, 24 h
COND: 24 h compound treatment, read-out: pRB_OVCAR3_24h
Quick list: IC50 per entry.

The examples below pair each entry with its known result.
CCc1cnc(NC2CCN(S(=O)(=O)c3cccc(CN4CCC(c5ccc6c(N7CCC(=O)NC7=O)nn(C)c6c5)CC4)c3)CC2)nc1 [Example 61]
1 to 100 nM
Cn1nc(N2CCC(=O)NC2=O)c2ccc(C3CCN(C[C@@H]4CCCCN4c4cccc(S(=O)(=O)N5CCC(Nc6ncc(OC(F)F)cn6)CC5)c4)CC3)cc21 [Example 261]
100 to 500 nM

Pending molecule:
Recorded IC50 of Cn1nc(N2CCC(=O)NC2=O)c2ccc(C3=CCN(CC4CCN(c5cccc(S(=O)(=O)N6CCC(Nc7ncc(Cl)cn7)CC6)c5)CC4)CC3)cc21 [Example 134] , please. 100 to 500 nM
